# maps each entry to its TGI
- Tested on: HOP-92 NSCLC
- Experimental Protocol: NCI tumour cell line growth inhibition, 48 h

Q. Bench note: what TGI did COc1cc2c(c(OC)c1O)-c1ccc(OC)c(=O)cc1[C@@H](NC(=O)C(F)(F)F)CC2 show?
A. > 100 µM

Q. Bench note: what TGI did Cc1cc(=O)oc2cc(SC(=O)N(C)C)ccc12 show?
A. > 100 µM

Q. Bench note: what TGI did CCOC(=O)[C@@H]1OC(c2ccccc2)O[C@H]1C(=O)OCC show?
A. > 100 µM

***
Q. Bench note: what TGI did NC(=O)NC(=O)CCC(NS(=O)(=O)c1ccccc1)C(=O)NC(N)=O (configuration not stated) show?
A. > 100 µM

Q. Bench note: what TGI did COc1cc(-c2nc(NC(C)=O)sc2-c2ccnc(NCCNS(=O)(=O)c3ccccc3)n2)ccc1Cl show?
A. 72 µM

Q. Bench note: what TGI did CC(N)C(=O)OCN1C(=O)C2C3C=CC(C2C1=O)C1C2C(=O)N(COC(=O)C(C)N)C(=O)C2C31 (configuration not stated) show?
A. > 100 µM

Q. Bench note: what TGI did Nc1nc(Cl)cc(NCCCNc2cc(Cl)nc(N)n2)n1 show?
A. > 100 µM

Q. Bench note: what TGI did CC1=C(C)CC(C#N)(C#N)C(C#N)(C#N)C1 show?
A. > 6.48 µM

---

# maps each entry to its TGI
- System: CCRF-CEM leukemia
- Experimental Protocol: NCI tumour cell line growth inhibition, 48 h

Solved cases below.
Q. Bench note: what TGI did O=C(Nc1cc2c(=O)[nH]c3ccccc3c2oc1=O)c1cnccn1 show?
A. > 100 µM

Q. Bench note: what TGI did COc1ccc(/C=C/C(=O)C(C)(C)CN2CCCCC2)cc1 show?
A. 60.6 µM

Q. Bench note: what TGI did CCCCCCCCCCCCCCCCOCC(CN(C)CCN(C)C)OCCCCCCCCCCCCCCCC (configuration not stated) show?
A. > 100 µM

Q. Bench note: what TGI did C[C@H]1CC[C@H]([C@@H](C)[C@H]2[C@@H](O)C[C@H]3[C@@H]4CC[C@H]5C[C@@H](O)CC[C@]5(C)[C@H]4CC[C@]23C)NC1 show?
A. 29 µM

Q. Bench note: what TGI did CCOC(=O)/C(C=Nc1c(C)n(C)n(-c2ccccc2)c1=O)=C(/O)c1ccccc1 show?
A. > 100 µM

Q. Bench note: what TGI did Cc1cccc(-c2nn3c(c2-c2ccnc4ccc(C(N)=O)cc24)CCC3)n1 show?
A. > 100 µM

***
Q. Bench note: what TGI did CN(C)CCCNC(=O)c1cc(NC(=O)c2cc(NS(=O)(=O)c3ccc4c(c3)C(=O)c3ccccc3C4=O)cn2C)cn1C show?
A. > 100 µM

Q. Bench note: what TGI did CCN(CC)CCCC(C)Nc1cc(-c2ccc(C(F)(F)F)cc2)c(C#N)c2nc3ccccc3n12 (configuration not stated) show?
A. > 100 µM

Q. Bench note: what TGI did [O-]c1c[n+](CCCC[n+]2cc([O-])on2)no1 show?
A. > 100 µM

Q. Bench note: what TGI did Cc1cc2nc3c(C#N)c(-c4ccccc4)/c(=C\Nc4ccc(Cl)cc4)c(=O)n3c2cc1C show?
A. > 100 µM

Q. Bench note: what TGI did O=C1/C(=C\c2ccc(F)cc2)CN(C(=O)c2ccc([N+](=O)[O-])cc2)C/C1=C\c1ccc(F)cc1 show?
A. > 42.6 µM

Q. Bench note: what TGI did O=c1c(-c2c(-c3ccccc3)oc3ccc(Cl)cc3c2=O)c(-c2ccccc2)oc2ccc(Cl)cc12 show?
A. > 100 µM
